System: MCF7
Test: NCI tumour cell line growth inhibition, 48 h
Active and inactive are the calls of the source. No stated cut-off is given here; in the data, active = GI50 up to about 1.1 µM and inactive = higher.
Pick one and only one: active, inactive

Look over these answered cases.
molecule=CCOC(=O)C(NC(=O)OC(C)(C)C)C(=O)OCC classassignment=inactive
molecule=CCOC(=O)c1cc(Cl)ccc1OC(N)=O classassignment=inactive
molecule=O=C(CN1CCOCC1)NC1=Nc2ncccc2C(=O)NN1 classassignment=inactive
molecule=COc1ccc2c3c([nH]c2c1)-c1nc2ccccc2c(=O)n1CC3 classassignment=inactive
molecule=CC1(C)OCC=CCO1 classassignment=inactive

QUERY: Test call for this molecule, please: CC(=O)C1=C(C)N(c2ccc(C)cc2)C2(O)C3=C(C(=O)c4ccccc4C3=O)C(O)=CC12Cl (stereo not given)
RESULT: inactive

QUERY: Next entry: C#CCOC(=O)C(N)CCCNC(=N)N (stereo not given)
RESULT: inactive

QUERY: Next entry: N#CC(c1ccc(O)cc1)N1CCN(C(C#N)c2ccc(O)cc2)CC1 (stereo not given)
RESULT: inactive

QUERY: Next entry: COC(=O)C1=C(C)NC(=S)NC1c1ccc(N(CCCl)CCCl)cc1Cl (stereo not given)
RESULT: inactive

QUERY: Next entry: N/N=C1/CCCc2nonc21
RESULT: inactive

QUERY: Next entry: CC(C)/C(Cl)=N\OC(=O)Nc1ccc(C#N)cc1
RESULT: inactive

QUERY: Next entry: COC(=O)c1ccc(/C=N/c2cc(C)nn2-c2ccccc2)cc1
RESULT: inactive

QUERY: Next entry: C=CCn1c(=O)ccn(/C(=C/C(=O)OCC)C(=O)OCC)c1=O
RESULT: inactive

QUERY: Next entry: NNC(=O)c1ccccc1Nc1nc(-c2cccs2)nc2ccc(Br)cc12
RESULT: inactive

QUERY: Next entry: O=C1CC[C@@]2(O)[C@H]3Cc4ccc(-c5cccc(O)c5)c5c4[C@@]2(CCN3CC2CC2)[C@H]1O5
RESULT: inactive

---

System: SF-539
Test: NCI tumour cell line growth inhibition, 48 h
The source made the active and inactive calls. No stated cut-off is given here; in the data, active = GI50 up to about 1.1 µM and inactive = higher.
Each entry below carries its reported GI50.

Guide cases for GI50, answers given:
compound=Cc1ccc(-c2nc(N/N=C/c3ccc(O)cc3)c3ccccc3n2)cc1 assaytarget=SF-539 testvalue="27.3 µM (inactive)"
compound=COC(=O)/C(C#N)=C(\N)c1c(C)c2ccccc2oc1=N assaytarget=SF-539 testvalue="> 100 µM (inactive)"
compound=C=C1[C@H](OC(=O)C(C)C)[C@]23CC4(O)[C@@H]5[C@@]6(C)CCC[C@]57C([C@@H]2C[C@@]1(O)[C@H](O)[C@@H]73)N4C6 assaytarget=SF-539 testvalue="> 100 µM (inactive)"
compound="CCCCCCCCCCCCC(O)[C@H]1CC[C@H](C(O)CCCCCC(=O)CCCCC2CC(C(C)=O)C(=O)O2)O1 (some centres not stated)" assaytarget=SF-539 testvalue="14.1 µM (inactive)"
compound="C/C(=C/CC[C@](C)(OC1OC(CO)C(O)C(O)C1O)[C@H]1CC[C@]2(C)[C@@H]1CC[C@@H]1[C@@]3(C)CC[C@H](O)C(C)(C)[C@@H]3C[C@H](O)[C@]12C)CO (some centres not stated)" assaytarget=SF-539 testvalue="10.4 µM (inactive)"

QUERY: Give the measured GI50 of Cc1cc2c(cc1C)[n+]([O-])c(C(=O)N1CCN(c3ccc([N+](=O)[O-])cc3)CC1)c(C)[n+]2[O-] .
RESULT: 17.7 µM (inactive)

QUERY: Next entry: O=C1NC(=S)NC(=O)C1=Cc1ccc(-c2ccccc2)cc1
RESULT: > 100 µM (inactive)
